# Tested System: feline FcRn (FCN-F82W3, Acrobiosystems) (feline)
# Test Summary: SPR Carterra, IgG coupled, pH 6.0
Returns: string. Value is TRUE if measured koff is below 0.03 s⁻¹, and FALSE if it is greater than or equal to it.

Below are worked cases with known answers.
{"columns": ["Binder", "Class Name"],
 "data": [
  ["anti-NGF feline IgG1a, Fc variant S428H (antibody, part only; not given: anti-NGF variable domains, light chain, not shown: another chain or arm of the molecule; small tags and cut ends) Fc: PPEMLGGPSIFIFPPKPKDTLSISRTPEVTCLVVDLGPDDSDVQITWFVDNTQVYTAKTSPREEQFNSTYRVVSVLPILHQDWLKGKEFKCKVNSKSLPSPIERTISKAKGQPHEPQVYVLPPAQEELSRNKVSVTCLIKSFHPPDIAVEWEITGQPEPENNYRTTPPQLDSDGTYFVYSKLSVDRSHWQRGNTYTCSVHHEALHSHHTQKSLTQSPGK", "FALSE"],
  ["anti-NGF feline IgG1a, Fc variant S434F (antibody, part only; not given: anti-NGF variable domains, light chain, not shown: another chain or arm of the molecule; small tags and cut ends) Fc: PPEMLGGPSIFIFPPKPKDTLSISRTPEVTCLVVDLGPDDSDVQITWFVDNTQVYTAKTSPREEQFNSTYRVVSVLPILHQDWLKGKEFKCKVNSKSLPSPIERTISKAKGQPHEPQVYVLPPAQEELSRNKVSVTCLIKSFHPPDIAVEWEITGQPEPENNYRTTPPQLDSDGTYFVYSKLSVDRSHWQRGNTYTCSVSHEALHFHHTQKSLTQSPGK", "TRUE"],
  ["anti-NGF feline IgG1a, Fc variant S434Y, S426L (antibody, part only; not given: anti-NGF variable domains, light chain, not shown: another chain or arm of the molecule; small tags and cut ends) Fc: PPEMLGGPSIFIFPPKPKDTLSISRTPEVTCLVVDLGPDDSDVQITWFVDNTQVYTAKTSPREEQFNSTYRVVSVLPILHQDWLKGKEFKCKVNSKSLPSPIERTISKAKGQPHEPQVYVLPPAQEELSRNKVSVTCLIKSFHPPDIAVEWEITGQPEPENNYRTTPPQLDSDGTYFVYSKLSVDRSHWQRGNTYTCLVSHEALHYHHTQKSLTQSPGK", "TRUE"],
  ["anti-NGF feline IgG1a, Fc variant S434Y, Q347L (antibody, part only; not given: Anti-NGF variable domains, not shown: another chain or arm of the molecule; small tags and cut ends) Fc: PPEMLGGPSIFIFPPKPKDTLSISRTPEVTCLVVDLGPDDSDVQITWFVDNTQVYTAKTSPREEQFNSTYRVVSVLPILHQDWLKGKEFKCKVNSKSLPSPIERTISKAKGQPHEPLVYVLPPAQEELSRNKVSVTCLIKSFHPPDIAVEWEITGQPEPENNYRTTPPQLDSDGTYFVYSKLSVDRSHWQRGNTYTCSVSHEALHYHHTQKSLTQSPGK", "TRUE"],
  ["anti-NGF feline IgG1a, Fc variant S428H, T289H (antibody, part only; not given: anti-NGF variable domains, light chain, not shown: another chain or arm of the molecule; small tags and cut ends) Fc: PPEMLGGPSIFIFPPKPKDTLSISRTPEVTCLVVDLGPDDSDVQITWFVDNTQVYTAKHSPREEQFNSTYRVVSVLPILHQDWLKGKEFKCKVNSKSLPSPIERTISKAKGQPHEPQVYVLPPAQEELSRNKVSVTCLIKSFHPPDIAVEWEITGQPEPENNYRTTPPQLDSDGTYFVYSKLSVDRSHWQRGNTYTCSVHHEALHSHHTQKSLTQSPGK", "FALSE"]
]}

Request: Field: below-cutoff. Rule: recorded koff strictly less than 0.03 s⁻¹. Subject: anti-NGF feline IgG1a, Fc variant Q347L (antibody, part only; not given: Anti-NGF variable domains, not shown: another chain or arm of the molecule; small tags and cut ends) Fc: PPEMLGGPSIFIFPPKPKDTLSISRTPEVTCLVVDLGPDDSDVQITWFVDNTQVYTAKTSPREEQFNSTYRVVSVLPILHQDWLKGKEFKCKVNSKSLPSPIERTISKAKGQPHEPLVYVLPPAQEELSRNKVSVTCLIKSFHPPDIAVEWEITGQPEPENNYRTTPPQLDSDGTYFVYSKLSVDRSHWQRGNTYTCSVSHEALHSHHTQKSLTQSPGK
Result: FALSE

Request: Field: below-cutoff. Rule: recorded koff strictly less than 0.03 s⁻¹. Subject: anti-NGF feline IgG1a, Fc variant S426H (antibody, part only; not given: anti-NGF variable domains, not shown: another chain or arm of the molecule; small tags and cut ends) Fc: PPEMLGGPSIFIFPPKPKDTLSISRTPEVTCLVVDLGPDDSDVQITWFVDNTQVYTAKTSPREEQFNSTYRVVSVLPILHQDWLKGKEFKCKVNSKSLPSPIERTISKAKGQPHEPQVYVLPPAQEELSRNKVSVTCLIKSFHPPDIAVEWEITGQPEPENNYRTTPPQLDSDGTYFVYSKLSVDRSHWQRGNTYTCHVSHEALHSHHTQKSLTQSPGK
Result: FALSE

Request: Field: below-cutoff. Rule: recorded koff strictly less than 0.03 s⁻¹. Subject: anti-NGF feline IgG1a, Fc variant T286E (antibody, part only; not given: anti-NGF variable domains, light chain, not shown: another chain or arm of the molecule; small tags and cut ends) Fc: PPEMLGGPSIFIFPPKPKDTLSISRTPEVTCLVVDLGPDDSDVQITWFVDNTQVYEAKTSPREEQFNSTYRVVSVLPILHQDWLKGKEFKCKVNSKSLPSPIERTISKAKGQPHEPQVYVLPPAQEELSRNKVSVTCLIKSFHPPDIAVEWEITGQPEPENNYRTTPPQLDSDGTYFVYSKLSVDRSHWQRGNTYTCSVSHEALHSHHTQKSLTQSPGK
Result: FALSE

Request: Field: below-cutoff. Rule: recorded koff strictly less than 0.03 s⁻¹. Subject: anti-NGF feline IgG1a, Fc variant Q311R (antibody, part only; not given: Anti-NGF variable domains, not shown: another chain or arm of the molecule; small tags and cut ends) Fc: PPEMLGGPSIFIFPPKPKDTLSISRTPEVTCLVVDLGPDDSDVQITWFVDNTQVYTAKTSPREEQFNSTYRVVSVLPILHRDWLKGKEFKCKVNSKSLPSPIERTISKAKGQPHEPQVYVLPPAQEELSRNKVSVTCLIKSFHPPDIAVEWEITGQPEPENNYRTTPPQLDSDGTYFVYSKLSVDRSHWQRGNTYTCSVSHEALHSHHTQKSLTQSPGK
Result: TRUE

Request: Field: below-cutoff. Rule: recorded koff strictly less than 0.03 s⁻¹. Subject: anti-NGF feline IgG1a, Fc variant T286E, S428H (antibody, part only; not given: Anti-NGF variable domains, not shown: another chain or arm of the molecule; small tags and cut ends) Fc: PPEMLGGPSIFIFPPKPKDTLSISRTPEVTCLVVDLGPDDSDVQITWFVDNTQVYEAKTSPREEQFNSTYRVVSVLPILHQDWLKGKEFKCKVNSKSLPSPIERTISKAKGQPHEPQVYVLPPAQEELSRNKVSVTCLIKSFHPPDIAVEWEITGQPEPENNYRTTPPQLDSDGTYFVYSKLSVDRSHWQRGNTYTCSVHHEALHSHHTQKSLTQSPGK
Result: TRUE
